- assayed.system: horseradish peroxidase (Armoracia rusticana, UniProt P00433)
- method.notes: Detection of hydrogen peroxide: fluorescence of indicator compounds after adding horseradish peroxidase and hydrogen peroxide
- Assay type: biochemical
- condition.parameters: 100 secs, 1.0 μM compound, pH 7.0 or 7.5, 37° C., nM of fluorescent standard equivalent
observed.property: Relative Fluorescence of Indicator Compounds, Fluorescence Units, 100 secs (nM)
Your answer should be a plain number; it is taken to be in nM.

compound: CCOC(=O)C1Cc2ccc(N(C)C)cc2NC1=O (stereo not drawn)
assayed.system: horseradish peroxidase (Armoracia rusticana, UniProt P00433)
unit.of.measurement: nM
readout.number: 101.5

Look up Relative Fluorescence of Indicator Compounds, Fluorescence Units, 100 secs for this compound: CCOC(=O)C1Cc2ccc(O)cc2N(C)C1=O (stereo not drawn)
5.7

Look up Relative Fluorescence of Indicator Compounds, Fluorescence Units, 100 secs for this compound: CCOC(=O)C1Cc2cc3c4c(c2OC1=O)CCCN4CCC3 (stereo not drawn)
13.0

Look up Relative Fluorescence of Indicator Compounds, Fluorescence Units, 100 secs for this compound: CCNC(=O)C1Cc2ccc(N(C)C)cc2N(C)C1=O (stereo not drawn)
101.5

Look up Relative Fluorescence of Indicator Compounds, Fluorescence Units, 100 secs for this compound: CN(C)c1ccc2c(c1)NC(=O)C(C(=O)[O-])C2.[K+] (stereo not drawn)
22.2

Look up Relative Fluorescence of Indicator Compounds, Fluorescence Units, 100 secs for this compound: CCOC(=O)C1Cc2ccc(NC)cc2NC1=O (stereo not drawn)
11.0

---

- assayed.system: horseradish peroxidase (Armoracia rusticana)
- method.notes: Detection of hydrogen peroxide: fluorescence of indicator compounds after adding horseradish peroxidase and hydrogen peroxide
- Type: biochemical
- condition.parameters: 0 secs, 1.0 μM compound, sodium phosphate buffer pH 7.0 or 7.5, 37° C., nM of fluorescent standard 7-hydroxy-3-(N-ethylcarboxamido)coumarin giving the same light output
Documented Relative Fluorescence of Indicator Compounds, Fluorescence Units, 0 secs across a set of compounds
Your answer should be a plain number; it is taken to be in nM.

Worked set:
compound: CCNC(=O)C1Cc2ccc(N(C)C)cc2N(C)C1=O (stereo not drawn)
readout.number: 4.3
--
compound: CCOC(=O)C1Cc2ccc(N(C)C)cc2NC1=O (stereo not drawn)
readout.number: 1.4
--
compound: CCOC(=O)C1Cc2cc3c4c(c2OC1=O)CCCN4CCC3 (stereo not drawn)
readout.number: 0.6

Look up Relative Fluorescence of Indicator Compounds, Fluorescence Units, 0 secs for this compound: CN(C)c1ccc2c(c1)NC(=O)C(C(=O)[O-])C2.[K+] (stereo not drawn)
1.4

Look up Relative Fluorescence of Indicator Compounds, Fluorescence Units, 0 secs for this compound: CCOC(=O)C1Cc2ccc(O)cc2N(C)C1=O (stereo not drawn)
1.3

---

- assayed.system: horseradish peroxidase (Armoracia rusticana, UniProt P00433)
- Sequence (P00433 31-353): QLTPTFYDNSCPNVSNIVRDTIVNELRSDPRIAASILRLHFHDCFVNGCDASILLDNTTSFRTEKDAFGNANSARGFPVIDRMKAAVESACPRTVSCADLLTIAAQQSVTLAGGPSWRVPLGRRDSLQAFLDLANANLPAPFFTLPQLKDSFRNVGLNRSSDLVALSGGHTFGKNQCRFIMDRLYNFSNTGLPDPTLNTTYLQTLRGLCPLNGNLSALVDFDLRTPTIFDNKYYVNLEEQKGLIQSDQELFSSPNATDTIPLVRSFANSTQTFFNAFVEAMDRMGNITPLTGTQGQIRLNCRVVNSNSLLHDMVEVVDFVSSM
- method.notes: Detection of hydrogen peroxide: fluorescence of indicator compounds after adding horseradish peroxidase and hydrogen peroxide
- Assay type: biochemical
- condition.parameters: 600 secs, 1.0 μM compound, pH 7.0 or 7.5, 37° C., nM of fluorescent standard equivalent
hey, just use 1 (yes) if measured Relative Fluorescence of Indicator Compounds, Fluorescence Units, 600 secs is less than 20 nM, otherwise 0 (no)

Here are 5 compounds together with their reported answers.
compound: CCOC(=O)C1Cc2ccc(N(C)C)cc2NC1=O (stereo not drawn)
group.label: 0 (no)
//
compound: CCNC(=O)C1Cc2ccc(N(C)C)cc2N(C)C1=O (stereo not drawn)
group.label: 0 (no)
//
compound: CCOC(=O)C1Cc2ccc(O)cc2N(C)C1=O (stereo not drawn)
group.label: 1 (yes)
//
compound: CCOC(=O)C1Cc2cc3c4c(c2OC1=O)CCCN4CCC3 (stereo not drawn)
group.label: 0 (no)
//
compound: CN(C)c1ccc2c(c1)NC(=O)C(C(=O)[O-])C2.[K+] (stereo not drawn)
group.label: 0 (no)

Lab note: next compound to report on.
Would you kindly verify if Relative Fluorescence of Indicator Compounds, Fluorescence Units, 600 secs of CCOC(=O)C1Cc2ccc(NC)cc2NC1=O (stereo not drawn) is strictly less than 20 nM?
1 (yes)
